Please go through the items and note down their log10 of TGI.
- Test system: ACHN renal
- experimentalDetails: NCI tumour cell line growth inhibition, 48 h
For clarity, the numbers are log10 values of TGI expressed in µM.

Need log10 of TGI of O=C1C=CC2(O)OCC3C=C4O[C@@H]5OC6(CCCCC6)O[C@@H]5C4[C@@H]2[C@@H]13 (stereo partly drawn) , thanks. 1.95

Input COc1ccccc1N=Nc1c(O)ccc2ccccc12 1.43

Continue with C/C(=C/CCC(C)[C@@H]1CC[C@]2(C)C3=C(CC[C@@]12C)[C@@]1(C)CCC(=O)C(C)(C)[C@@H]1CC3)C(=O)O (stereo partly drawn) 0.44

Further, for Nc1nc(Cl)c2ncn(Cc3ccc(C45CC6CC(CC(C6)C4)C5)c(OCc4cc(F)c(F)cc4F)c3)c2n1 ? 1.14

// next record COC(=O)c1ccc(NC(N)=NCCC(C)(C)c2ccc(C(F)(F)F)cc2)nc1 0.69

What about CN(C)C1C(=O)C(C(N)=O)=C(O)C2(O)C(=O)C3=C(O)c4c(O)cccc4C(C)(O)C3CC12.[Cl][Sb]([Cl])[Cl] (stereo not drawn) ? 1.27

Record: COC(=O)[C@]12CC[C@@H](C)[C@H](C)[C@@H]1C1=CC[C@@H]3[C@@]4(C)C(C=O)=C[C@@](C)(COS(C)(=O)=O)C4=CC[C@@]3(C)[C@]1(C)CC2 -0.50

Now consider CCCCCCCCCCCCCCCCNc1nc(=O)n(C2OC(C)C(O)C2O)cc1F (stereo not drawn) . 1.46

###

- Test system: MOLT-4 leukemia
- experimentalDetails: NCI tumour cell line growth inhibition, 48 h
Record form. Attribute: TGI. Fill in for each entry.

Given COc1ccc2oc(=O)c(-c3cc4c(c(C)n3)c(=O)oc3ccc(OC)cc34)cc2c1 , state its recorded TGI. > 100 µM

Let us now turn to CN(Cc1cnc2nc(N)nc(N)c2n1)c1ccc(C(=O)NC(CCC(=O)O)C(=O)O)c2ccccc12 (stereo unspecified) > 1000 µM

Now consider COc1c(OC2OC(CO)C(O)C(O)C2O)cc2c(c1OC)-c1ccc(OC)c(=O)cc1C(NC(C)=O)CC2 (stereo unspecified) . > 100 µM

Next up: NC1=NC(c2ccccc2Cl)c2c(n[nH]c2N)N1 (stereo unspecified) > 100 µM

Next record, please: CC1(C)CCC[C@@]2(C)C1CC[C@@]1(CO)O[C@H](C3=CC(=O)OC3O)C[C@H]12 (stereo partly specified) 11.5 µM

Now consider CC(C)N(C(=O)C12C3C4C1C1C4(C#N)C3C12C(=O)O)C(C)C (stereo unspecified) . > 100 µM

Same lookup for O=C1Nc2ccc(-c3cccnc3)cc2/C1=C/c1cc(Br)c(O)c(Br)c1 , please. > 25 µM

What about N=C(N)n1cc(/C=N/N=C(N)N)cn1 ? > 100 µM

What about COC(=O)[C@]12CC[C@@H](C)[C@H](C)[C@@H]1C1=CC[C@@H]3[C@@]4(C)C(C=O)=C[C@@](C)(COS(C)(=O)=O)C4=CC[C@@]3(C)[C@]1(C)CC2 ? 1.05 µM

Also, Cc1ccc(-n2c3nc(=O)n(C)c(=O)c-3nc3ccccc32)c(C)c1 please. 36.2 µM

Please do the same for O=c1[nH]c2ccccc2cc1-c1nnc(Cc2ccccc2)o1 as well. 9.22 µM

How about C[C@H]1CCC/C=C/[C@@H]2C[C@H](OC3OC(CO)C(O)C(O)C3O)C[C@H]2[C@H](O)/C=C/C(=O)O1 (stereo partly specified) ? > 100 µM

Note, next up: CC(C)(C)C1=NO[C@H]2[C@@H](NC(=O)c3ccccc3)CC[C@@H]12 > 100 µM

Follow-up entry: Cc1nc2ccncc2[nH]1 > 100 µM

Next molecule: CC(=O)CCC1(C(=O)OCC(C)C)CCCC1=O (stereo unspecified) > 100 µM

Similarly, CC(C)CNP(=O)(NCC(C)C)Oc1ccc(CC(NC(=O)OCc2ccccc2)C(=O)OCc2ccccc2)cc1 (stereo unspecified) ? 41.1 µM

Can you check O=c1[nH]ncc2[nH]c3c(c12)CCc1ccccc1-3 next? 69.7 µM

Lookup COC(=O)c1c(O)ccc2c1c1c(n2Cc2ccc(OC)cc2)C(=O)c2ccccc2C1 > 100 µM

Next molecule up: N#CN1CC[C@H](C(=O)Nc2ncc(-c3ccccc3)s2)C1 2.04 µM

Try this molecule next: NC(=O)CSc1nc2ccccc2c(=O)n1N > 100 µM

Please give the result for COC(=O)[C@H](C)NC(=O)[C@H](NS(=O)(=O)c1nc2ccccc2s1)c1ccccc1 too. > 100 µM

###

- Tested on: MDA-MB-231 breast
- experimentalDetails: NCI tumour cell line growth inhibition, 48 h
Assignment: determine reported log10 TGI for the given molecules.
Please note: log10 values; quantity TGI; unit µM.

What value of log10 TGI has been recorded for this entry: CC(C)OC(=O)C(NC(=O)C(CC(=O)OCc1ccccc1)NC(=O)OCc1ccccc1)NC(=O)C1C(C)(C)CCC1(C)C (stereo not given) 0.89

Entry to check: O=c1[nH]nc(Nc2ccc(Cl)cc2)c2nnn(C3CCCCC3)c12 1.66

Consider next the molecule CC1(C)N=C(/C(Cl)=[N+](/[O-])C(=O)c2ccc(Cl)cc2)C(C)(C)N1O in the same way. 1.60

// next record O=c1[nH]c2c(Nc3c4ccccc4nc4ccccc34)c([N+](=O)[O-])c(Nc3c4ccccc4nc4ccccc34)c([N+](=O)[O-])c2[nH]1 0.69

How about this molecule: O=C(Nc1nc2ccc(S(=O)(=O)Nc3ccc(C4(C(F)(F)F)CC4)cc3)cc2[nH]1)c1cnccn1 1.29

Also O=C(/C=C/c1ccccc1)c1cc(CN2CCOCC2)c(O)c(CN2CCOCC2)c1 ? 1.51

Quick one: NCCCNc1nc2ccccc2c2c(=O)c3cc(Cl)ccc3sc12 0.43

Now consider COc1ccc(-c2cnc(-c3ccncc3-c3cccc(OC)c3)o2)cc1 and answer again. 1.29

Another: OCCN1CCN(c2nc(N3CCCC3)c3nc(Cl)c(NCc4ccccc4)nc3n2)CC1 1.40

Follow-up entry: C[C@]12CCc3nc(Nc4ccc(O)cc4)sc3C1=CC[C@@H]1[C@@H]2CC[C@]2(C)/C(=N/NC(N)=S)CC[C@@H]12 0.68

Now the same for O=C(O)c1ccccc1NCn1nc(-c2ccccc2O)oc1=S 1.68

Cool, now CC(C)=CC1C(C(=O)OCc2cc3c(cc2Cl)OCO3)C1(C)C (stereo not given) 1.94

###

- System: KM12 colon
- experimentalDetails: NCI tumour cell line growth inhibition, 48 h
I'd be grateful if you could share measured TGI for these entries.

Quick one: TGI of O=[N+]([O-])/C=C/c1cc(Cl)c(/C=C/[N+](=O)[O-])cc1Cl ? > 24.6 µM

Try this molecule next: CCCCCCCCCC1CC(=O)OC23CCCC(=O)C12O3 (stereo unspecified) > 100 µM

Cool, now CN1CCCc2nc3ccccc3n2C1 > 100 µM

Likewise for OCc1ccc(-c2ccc(-c3ccc(CO)o3)o2)o1 ? > 100 µM

Entry Cc1ccc(S(=O)(=O)Nc2ccccc2C(C)(C)C)cc1 please 47.1 µM

# iterate: OCC1OC(OC2(CO)OC(CO)C(O)C2O)C(O)C(O)C1O (stereo unspecified) > 100 µM

###

For each entry below, report its TGI value.
- Tested on: HCT-116 colon
- experimentalDetails: NCI tumour cell line growth inhibition, 48 h

What is its TGI for HCT-116 colon? Entry: C1CN2CCO[SiH](O1)OCC2 > 100 µM

Another molecule to look at: Cc1cc(OC2OC(CO)C(O)C(O)C2O)ccc1O (stereo unspecified) > 100 µM

And what about the molecule CCOC(=O)c1cc(C(=O)c2ccc(OC)c(OC)c2)n2c1ccc1ccc3cccnc3c12 ? > 100 µM

Same read-out for CCCCCCCCCCCC1=C(O)C(=O)C(CC2=C(O)C(=O)C(CCCCCCCCCCC)=C(O)C2=O)=C(O)C1=O ? > 100 µM

How about Nc1c(C(=O)O)c2ccc([N+](=O)[O-])cc2c(=O)n1-c1nc2ccccc2s1 ? > 100 µM

Now the molecule O=C1OC(=O)c2c1nc1ccccc1c2-c1ccccc1 > 100 µM

###

- Test system: HCC-2998 colon
- experimentalDetails: NCI tumour cell line growth inhibition, 48 h; in the data active = GI50 below about 0.43 µM; inactive = the rest
Use one of these outcomes when replying: true = active, false = inactive

Check the results log: what was the call for Nc1ncnc2c1c(-c1ccc(Oc3ccccc3)cc1)nn2CC1SSCC1O (stereo not drawn) ? false

Also CN(C)CCCOc1ccc(NC2=C(Cl)C(=O)C(Nc3ccc(OCCCN(C)C)cc3)=C(Cl)C2=O)cc1 ? false

Can you handle Nc1c(C(=O)Nc2ccccc2)sc2nc3c(cc12)C(=O)CCC3 next? false

Queued: C/C(=C/CCC(C)[C@@H]1CC[C@]2(C)C3=C(CC[C@@]12C)[C@@]1(C)CCC(=O)C(C)(C)[C@@H]1CC3)C(=O)O (stereo partly drawn) false

// next record O=C(Nc1ccc(-n2cc(-c3ccncc3)c(-c3ccc(O)c(Cl)c3)n2)cc1)Nc1cc(C(F)(F)F)cc(C(F)(F)F)c1 false

And C[C@]12CCc3nc(Nc4ccc(O)cc4)sc3C1=CC[C@@H]1[C@@H]2CC[C@]2(C)/C(=N/NC(N)=S)CC[C@@H]12 ? false

Do the same for Nc1nc(Cl)c2ncn(Cc3ccc(C45CC6CC(CC(C6)C4)C5)c(OCc4cc(F)c(F)cc4F)c3)c2n1 please false

Next compound: C/C(=N\NC(=S)N1CCC1)c1ccccn1 true
